- experimental target: RSV prefusion F (preF), DS-Cav1 (Respiratory syncytial virus, UniProt P03420 26-513)
- test: BLI, IgG on anti-human IgG sensor, 100 nM antigen
pKd: −log10 of the molar value.
pKd values by entry
metric: pKd

[[record]]
binder = "ADI-41591 (antibody, V domains shown, also called Ab 865; Antibody Number 865) VH: QVTLKESGGGLVKPGGSLRLSCAASGFTFSDYYMSWIRQAPGKGLEWVSYISSSSSYTNYADSVKGRFTISRDNAKNSLYLQMNSLRAEDTAVYYCAREAVAAAGTDYFDYWGQGTLVTVSS VL: QSVLTQPPSVSGAPGQRVTISCTGSSSNIGAGYDVHWYQQPPRTAPKLLIYGNSNRPSGVPDRFSGSKSGTSASLAITGLQAEDEADYYCQSYDSSLSGYVFGTGTKLTVL"
experimental_value = 8.37

[[record]]
binder = "ADI-41804 (antibody, V domains shown) VH: QVQLQQWGAGLLKPSETLSLTCSVLGGSFSGYYWTWIRQPPGKGLEWIGEITHDGSSNYNPSLNSRVTISVDTSNYQFSLKMRSVTAADTAVYYCARSPDLTIFGGLYFYYGISVWGQGTTVTVSS VL: DIQMTQSPSSLSASMGDRVTITCRASQDISNYLAWYQQKPGKVPNLLIYAASTLQGGVPSRFSGSGSGTDFTLTISSLQPEDVAIYYCQKYKSAPRTFGQGTKVEIK"
experimental_value = 9.48

[[record]]
binder = "ADI-41581 (antibody, V domains shown, also called Ab 855; Antibody Number 855) VH: EVQLLESGSELKKPGASVKISCKTSGYTFTNYLMNWVRQAPGQGLEWMGWINTHTGNPTYAQDFTGRFVFSLDTSVNTAYLQISSLKAEDTAIYYCARDGLEAFSGYNGVDYWGQGTLVTVSS VL: DIVMTQTPLSLPVTPGEPASISCRSSPSLLHSNGYNYLDWYLQKPGQSPQLLIYLGSTRASGVPDRFSGSGSGTDFTLRISRVEAEDVGVYYCMQALQIPLTFGQGTKLEIK"
experimental_value = 8.56

